# test target: PARP-1 enzyme (Homo sapiens)
# test protocol: In vitro scintillation proximity assay (SPA) for PARP-1 inhibitory activity
# Type: biochemical
# measurement context: [3H]-NAD+, biotinylated histones, nicked DNA; read-out: in vitro SPA assay PARP-1 pIC50 (converted)
endpoint name: IC50 (nM)

I. O=c1[nH]c(NCCN2CCN(c3n[nH]c4cc(F)ccc34)CC2)nc2ccccc12
II. O=c1[nH]c(NCCCN2CCC(c3n[nH]c4cc(F)ccc34)CC2)nc2ccccc12
Exercise: # query: argmin of IC50 over I and II Respond using the label that marks the chosen record.
Key: I

P. CO[C@H]1CN(CCCNc2nc3ccccc3c(=O)[nH]2)CC[C@H]1NC(=O)c1cc(Cl)cc2c1OC(C)(C)C2
Q. CO[C@@H]1CN(CCCNc2nc(O)c3ccccc3n2)CCN1NC(=O)c1cc(Cl)c(N)c2c1OC(C)(C)C2
Exercise: # query: argmin of IC50 over P and Q Respond using the label that marks the chosen record.
Key: Q
(Q: 535 nM, P: 847 nM)

###

# test target: TANK-2 enzyme (Homo sapiens, UniProt Q9H2K2)
# Construct: made in house
# Sequence (Q9H2K2 whole entry): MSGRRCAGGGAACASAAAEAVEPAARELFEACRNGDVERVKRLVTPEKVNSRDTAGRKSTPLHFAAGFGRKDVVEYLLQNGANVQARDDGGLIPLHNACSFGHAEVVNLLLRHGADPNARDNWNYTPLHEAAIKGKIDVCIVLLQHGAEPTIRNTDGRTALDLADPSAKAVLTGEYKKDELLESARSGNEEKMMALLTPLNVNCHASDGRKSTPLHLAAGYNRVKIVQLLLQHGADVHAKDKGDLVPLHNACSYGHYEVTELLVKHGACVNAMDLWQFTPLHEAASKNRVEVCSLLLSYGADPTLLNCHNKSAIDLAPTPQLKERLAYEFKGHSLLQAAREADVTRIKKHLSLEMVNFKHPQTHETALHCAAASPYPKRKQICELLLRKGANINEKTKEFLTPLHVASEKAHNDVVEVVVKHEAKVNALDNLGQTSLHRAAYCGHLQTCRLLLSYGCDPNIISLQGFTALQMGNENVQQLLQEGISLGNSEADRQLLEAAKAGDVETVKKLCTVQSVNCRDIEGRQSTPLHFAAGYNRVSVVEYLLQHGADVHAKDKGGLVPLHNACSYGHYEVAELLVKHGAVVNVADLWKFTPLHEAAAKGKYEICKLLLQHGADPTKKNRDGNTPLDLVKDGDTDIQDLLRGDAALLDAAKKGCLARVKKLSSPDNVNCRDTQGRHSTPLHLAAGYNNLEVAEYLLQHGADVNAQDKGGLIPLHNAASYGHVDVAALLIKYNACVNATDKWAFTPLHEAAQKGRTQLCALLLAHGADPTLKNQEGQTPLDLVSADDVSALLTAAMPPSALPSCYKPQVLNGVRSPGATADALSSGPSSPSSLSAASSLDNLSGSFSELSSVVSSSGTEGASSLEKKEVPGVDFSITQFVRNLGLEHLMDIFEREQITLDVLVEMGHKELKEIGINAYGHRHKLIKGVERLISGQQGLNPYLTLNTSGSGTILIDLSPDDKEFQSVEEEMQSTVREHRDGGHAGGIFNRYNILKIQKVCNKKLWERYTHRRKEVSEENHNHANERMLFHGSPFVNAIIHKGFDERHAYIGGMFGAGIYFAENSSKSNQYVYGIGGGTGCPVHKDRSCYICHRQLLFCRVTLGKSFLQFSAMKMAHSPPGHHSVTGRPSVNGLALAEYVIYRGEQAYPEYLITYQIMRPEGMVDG
# test protocol: In vitro scintillation proximity assay (SPA) for TANK-2 inhibitory activity
# Assay type: biochemical
# measurement context: auto-poly(ADP-ribosyl)ation; 96-well plate results if available, otherwise 384-well; read-out: in vitro SPA assay TANK-2 pIC50 (converted)
As shown below, each of these compounds has a reported IC50 value.

| compound | result |
| --- | --- |
| O=c1[nH]c(NCCN2CCC(Nc3nc4ccccc4c(=O)[nH]3)CC2)nc2ccccc12 [Compound 30] | 0.794 µM |
| O=C(c1ccc(F)cc1)C1CCN(CCNc2nc3ccccc3c(=O)[nH]2)CC1 [Compound 46] | > 10 µM |
| O=c1[nH]c(NCCCN2CCC(Nc3cccc4ccccc34)CC2)nc2ccccc12 [Compound 42] | > 10 µM |

Exercise: // IC50 lookup, key: CO[C@H]1CN(CCCNc2nc3ccccc3c(=O)[nH]2)CC[C@H]1NC(=O)c1cc(Cl)cc2c1OC(C)(C)C2 [Compound 18]
Key: > 10 µM

###

# test target: PARP-1 enzyme (Homo sapiens, UniProt P09874)
# Sequence (P09874 whole entry): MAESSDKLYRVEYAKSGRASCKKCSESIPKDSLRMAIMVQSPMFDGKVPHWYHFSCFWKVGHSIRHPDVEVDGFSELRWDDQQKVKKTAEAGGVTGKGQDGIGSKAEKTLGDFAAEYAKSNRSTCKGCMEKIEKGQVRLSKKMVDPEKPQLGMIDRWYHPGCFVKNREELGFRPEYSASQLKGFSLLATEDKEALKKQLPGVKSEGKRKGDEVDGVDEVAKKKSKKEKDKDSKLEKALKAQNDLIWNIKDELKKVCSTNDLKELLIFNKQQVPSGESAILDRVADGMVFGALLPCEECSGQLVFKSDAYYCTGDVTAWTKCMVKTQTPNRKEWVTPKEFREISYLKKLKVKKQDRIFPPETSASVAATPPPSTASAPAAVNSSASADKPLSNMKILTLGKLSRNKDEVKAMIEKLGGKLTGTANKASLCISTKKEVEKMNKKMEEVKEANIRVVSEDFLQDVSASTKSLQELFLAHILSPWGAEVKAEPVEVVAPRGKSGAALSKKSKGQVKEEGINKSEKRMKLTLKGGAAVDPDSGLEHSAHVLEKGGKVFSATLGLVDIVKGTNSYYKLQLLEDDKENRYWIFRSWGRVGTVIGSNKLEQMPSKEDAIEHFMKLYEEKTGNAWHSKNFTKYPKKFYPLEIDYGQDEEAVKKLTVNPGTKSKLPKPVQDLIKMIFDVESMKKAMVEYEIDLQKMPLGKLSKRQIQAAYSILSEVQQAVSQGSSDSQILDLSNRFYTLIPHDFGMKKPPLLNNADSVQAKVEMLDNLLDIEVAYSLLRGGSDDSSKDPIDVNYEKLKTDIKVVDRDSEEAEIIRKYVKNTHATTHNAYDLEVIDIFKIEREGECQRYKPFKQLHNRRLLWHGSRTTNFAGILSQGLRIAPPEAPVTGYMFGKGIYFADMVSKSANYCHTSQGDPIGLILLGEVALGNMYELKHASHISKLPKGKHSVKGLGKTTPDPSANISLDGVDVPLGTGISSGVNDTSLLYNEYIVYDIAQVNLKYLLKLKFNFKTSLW
# test protocol: In vitro scintillation proximity assay (SPA) for PARP-1 inhibitory activity
# Assay type: biochemical
# measurement context: [3H]-NAD+, biotinylated histones, nicked DNA; read-out: in vitro SPA assay PARP-1 pIC50 (converted)
endpoint name: IC50 (nM)

a. Nc1c(Cl)cc(C(=O)NC2CCN(CCCNc3nc(O)c4ccccc4n3)CC2)c2c1CCO2
b. O=c1[nH]c(NCCCN2CCC(n3c(=O)[nH]c4ccccc43)CC2)nc2ccccc12
Exercise: Which is greater in IC50, the first item a or the second item b ? Respond using the label that marks the chosen record.
Key: b
(b: 785 nM, a: 225 nM)

P. O=c1[nH]c(NCCCN2CCC(c3c[nH]c4ccccc34)CC2)nc2ccccc12
Q. O=c1[nH]c(NCCCN2CCN(c3n[nH]c4ccccc34)CC2)nc2ccccc12
R. CO[C@@H]1CN(CCCNc2nc(O)c3ccccc3n2)CC[C@@H]1NC(=O)c1cc(Cl)c(N)c2c1OCCC2
S. O=C(c1ccc(F)cc1)C1CCN(CCNc2nc3ccccc3c(=O)[nH]2)CC1
T. O=c1[nH]c(NCCN2CCN(c3n[nH]c4ccccc34)CC2)nc2cc(Cl)ccc12
Exercise: Put the compounds in ascending order of IC50. Thanks in advance for listing the labels in the requested order.
Key: T, Q, S, R, P
